All values here come from patent US20240124454A1.

TARGET_ENTITY: UniProtKB P31153
Sequence (P31153 whole entry): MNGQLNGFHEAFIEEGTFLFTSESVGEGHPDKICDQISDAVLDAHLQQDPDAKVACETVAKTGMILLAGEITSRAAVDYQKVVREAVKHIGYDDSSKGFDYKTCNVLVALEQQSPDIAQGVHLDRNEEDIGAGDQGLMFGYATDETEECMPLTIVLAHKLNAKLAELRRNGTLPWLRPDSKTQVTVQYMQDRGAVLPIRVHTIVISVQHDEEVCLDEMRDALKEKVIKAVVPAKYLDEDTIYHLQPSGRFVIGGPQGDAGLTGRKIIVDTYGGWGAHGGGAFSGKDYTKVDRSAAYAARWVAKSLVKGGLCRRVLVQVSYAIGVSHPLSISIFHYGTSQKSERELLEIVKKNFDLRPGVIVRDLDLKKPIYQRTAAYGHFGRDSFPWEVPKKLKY
ASSAY_DETAILS: MAT2A biochemical test (inorganic phosphate colorimetric, PiColorLock)
RUN_PARAMETERS: numeric values; read-out: MAT2A inhibitory Activity IC50
# pIC50 per entry
Hey, just a heads up that pIC50 is the negative log base 10 of the concentration in molar.

Recorded pIC50, per entry:
COMPOUND	VALUE
CCOc1ccc2c3cn(C)nc3c(=O)n(-c3ccc(OC(F)F)cc3)c2n1	6.91
Cc1ncccc1-n1c(=O)c2ncoc2c2ccc(C(F)(F)F)cc21 (single isomer, unassigned) [Compound 82-P2]	7.64
NCCn1cnc2c(=O)n(-c3ccccc3Cl)c3nc(C(F)(F)F)ccc3c21	6.53

If you can, please state the reported pIC50 value of "O=c1c2ocnc2c2ccc(C(F)(F)F)nc2n1-c1ccc(OC(F)F)cc1" .
6.36

Which pIC50 reading was recorded for the compound Cn1cnc2c(=O)n(-c3cccc(C#N)c3Cl)c3nc(C(F)(F)F)ccc3c21 (single isomer, unassigned) [Compound 73-P2] ?
7.56

Could you tell me which pIC50 is on file for "Cc1cccc(-n2c(=O)c3ncn(C)c3c3ccc(C(F)(F)F)nc32)c1Cl" ?
7.28

Quick one: pIC50 for "Cc1ncccc1-n1c(=O)c2ncn(C)c2c2cnc(C(F)(F)F)nc21" ?
7.14

Given the compound O=c1c2ncoc2c2ccc(C(F)(F)F)cc2n1-c1cccnc1C1CC1 (single isomer, unassigned) [Compound 85-P2] , what is its reported pIC50?
7.47

Can you look up the measured pIC50 of "Cc1ncccc1-n1c(=O)c2ncn(Cc3cnn(C)c3)c2c2ccc(C(F)(F)F)nc21" for me?
6.85

If you can, please state the reported pIC50 value of "CCOc1ccc2c3[nH]c(OC)nc3c(=O)n(-c3ccc(OC(F)F)cc3)c2n1" .
7.25

State the recorded pIC50 for this entry: O=c1c2ncn(C(F)F)c2c2ccc(Cl)cc2n1-c1cccnc1C1CC1 (single isomer, unassigned) [Compound 87-P2]
7.41

Return reported pIC50; argument: Cn1cnc2c(=O)n(-c3cccnc3C3CC3)c3cc(Cl)ccc3c21 (atropisomer, axis not shown) [Compound 49]
7.55
